ASSAYED SYSTEM: Cyclin-dependent kinase 2/cyclin E (Homo sapiens, UniProt P24941)
List of IC50 values.
OBSERVABLE: IC50

>  <SMILES NOTATION>
CCc1nn(-c2c(Cl)cc(Cl)cc2Cl)c2nc(Cc3ccc(OC)c(C)c3)[nH]c(=O)c12

>  <OBSERVABLE>
IC50

>  <RESULT>
0.06 µM

$$$$
>  <SMILES NOTATION>
CCc1nn(-c2c(Cl)cc(Cl)cc2Cl)c2nc(Cc3ccc(NC(=O)CN)cc3)nc(O)c12

>  <OBSERVABLE>
IC50

>  <RESULT>
0.01 µM

$$$$
>  <SMILES NOTATION>
CCc1nn(-c2c(Cl)cc(Cl)cc2Cl)c2nc(Cc3ccc(C)c(OC)c3)[nH]c(=O)c12

>  <OBSERVABLE>
IC50

>  <RESULT>
0.11 µM

$$$$
>  <SMILES NOTATION>
CCc1nn(-c2c(Cl)cc(Cl)cc2Cl)c2nc(Cc3cc(O)cc(O)c3)[nH]c(=O)c12

>  <OBSERVABLE>
IC50

>  <RESULT>
0.02 µM

$$$$
>  <SMILES NOTATION>
CSc1nn(-c2c(Cl)cc(Cl)cc2Cl)c2nc(CF)[nH]c(=O)c12

>  <OBSERVABLE>
IC50

>  <RESULT>
1.6 µM

$$$$
>  <SMILES NOTATION>
CSCc1nc2c(c(SC)nn2-c2c(Cl)cc(Cl)cc2Cl)c(=O)[nH]1

>  <OBSERVABLE>
IC50

>  <RESULT>
0.31 µM

$$$$
>  <SMILES NOTATION>
CCc1nn(-c2c(Cl)cc(Cl)cc2Cl)c2nc(Cc3ccc(NC(C)=O)cc3)[nH]c(=O)c12

>  <OBSERVABLE>
IC50

>  <RESULT>
0.009 µM

$$$$
>  <SMILES NOTATION>
CSc1nn(-c2c(Cl)cc(Cl)cc2Cl)c2nc[nH]c(=O)c12

>  <OBSERVABLE>
IC50

>  <RESULT>
2.7 µM

$$$$
>  <SMILES NOTATION>
CSc1nn(-c2c(Cl)cc(Cl)cc2Cl)c2nc(CCN(C)C(=O)OC(C)(C)C)[nH]c(=O)c12

>  <OBSERVABLE>
IC50

>  <RESULT>
19 µM

$$$$

----------
pIC50: −log10 of the molar value.
Entries with reported pIC50 on Cyclin-dependent kinase 2/cyclin E (Homo sapiens)
OBSERVABLE: pIC50

>  <SMILES NOTATION>
CCc1nn(-c2c(Cl)cc(Cl)cc2Cl)c2nc(Cc3ccc(O)c(OC)c3)[nH]c(=O)c12

>  <ASSAYED SYSTEM>
Cyclin-dependent kinase 2/cyclin E (Homo sapiens)

>  <NUMERIC READOUT>
7.15

$$$$
>  <SMILES NOTATION>
CCc1nn(-c2c(Cl)cc(Cl)cc2Cl)c2nc(Cc3cccnc3)[nH]c(=O)c12

>  <ASSAYED SYSTEM>
Cyclin-dependent kinase 2/cyclin E (Homo sapiens)

>  <NUMERIC READOUT>
8.00

$$$$
>  <SMILES NOTATION>
CCc1nn(-c2c(Cl)cc(Cl)cc2Cl)c2nc(Cc3ccc(OC)cc3)[nH]c(=O)c12

>  <ASSAYED SYSTEM>
Cyclin-dependent kinase 2/cyclin E (Homo sapiens)

>  <NUMERIC READOUT>
8.00

$$$$
>  <SMILES NOTATION>
CCc1nn(-c2c(Cl)cc(Cl)cc2Cl)c2nc(Cc3ccc(OC)c(O)c3)[nH]c(=O)c12

>  <ASSAYED SYSTEM>
Cyclin-dependent kinase 2/cyclin E (Homo sapiens)

>  <NUMERIC READOUT>
8.00

$$$$
>  <SMILES NOTATION>
CCc1nn(-c2c(Cl)cc(Cl)cc2Cl)c2nc(Cc3ccc(O)cc3)[nH]c(=O)c12

>  <ASSAYED SYSTEM>
Cyclin-dependent kinase 2/cyclin E (Homo sapiens)

>  <NUMERIC READOUT>
8.00

$$$$

Attribution: ChEMBL document CHEMBL1138844
